Source listed as ChEMBL document CHEMBL1240487.

experiment: Volume of distribution at steady state in Sprague-Dawley rat at 0.5 mg/kg, iv and 2 mg/kg, po; assay type: ADME, organism-based; details: in vivo, read-out: Vdss
Experimental readout: Vd (L/kg)
Quick note: give the figure in L/kg, leave out the unit.

Fill in the blank: the reported Vd of CNc1nccc(-c2cccnc2Oc2ccc(NC(=O)c3ccccc3Nc3ccccc3)cc2)n1 is ____.
4.8

###

Each record here notes measured pIC50.
biological target: Mitogen-activated protein kinase 9 (Homo sapiens, UniProt P45984); assay: Inhibition of JNK2 by HTRF assay
Sequence (P45984 whole entry): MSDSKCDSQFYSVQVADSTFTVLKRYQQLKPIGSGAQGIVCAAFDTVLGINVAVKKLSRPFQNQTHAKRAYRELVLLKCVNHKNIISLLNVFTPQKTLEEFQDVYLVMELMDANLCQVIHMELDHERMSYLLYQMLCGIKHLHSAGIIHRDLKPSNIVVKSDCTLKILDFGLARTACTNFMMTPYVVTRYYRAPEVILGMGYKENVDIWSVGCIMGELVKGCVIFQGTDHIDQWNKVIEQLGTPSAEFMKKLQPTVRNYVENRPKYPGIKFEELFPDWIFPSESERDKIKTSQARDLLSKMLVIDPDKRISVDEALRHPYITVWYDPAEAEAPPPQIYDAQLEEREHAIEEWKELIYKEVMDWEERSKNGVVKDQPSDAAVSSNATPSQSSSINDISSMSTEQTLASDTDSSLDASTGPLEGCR
pIC50: −log10 of the molar value.

Below, 2 compounds whose answers are already recorded.
Quick check: pIC50 of CNc1nccc(-c2cccnc2Oc2ccc(Nc3nnc(-c4ccc(F)cc4)c4ccccc34)cc2)n1 ?
< 4.60

Can you share its pIC50? I mean this compound: CNc1nccc(-c2cccnc2Oc2ccc(NC(=O)c3ccccc3Nc3ccccc3)cc2)n1
< 6.00

Now look at this entry.
Fill in: pIC50 of CNc1nccc(-c2cccnc2Oc2ccc(NC(=O)c3cccc(C(F)(F)F)c3)cc2C)n1 is ___
< 5.10

###

assay: Oral bioavailability in Sprague-Dawley rat at 2 mg/kg; format: ADME, organism-based; conditions: in vivo
Below is a list of entries, each paired with its recorded bioavailability value.

If you can, please state the reported bioavailability value of CNc1nccc(-c2cccnc2Oc2ccc(NC(=O)c3ccccc3Nc3ccccc3)cc2)n1 .
< 1%

Others:
For the compound shown here, CNc1nccc(-c2cccnc2Oc2ccc(NC(=O)c3cc(F)ccc3Nc3ccccc3)cc2)n1 , give the reported bioavailability.
< 1%

###

assay: Drug level in human COLO205 cells xenografted in CD1 mouse plasma at 50 mg/kg, po after 24 hrs; type: ADME, organism-based, COLO 205; set-up: dose 50 mg/kg, route oral
Experimental readout: concentration at 24 h (ng/mL)
State the answer as a number, implicitly in ng/mL.

What value of measured concentration at 24 h is listed for CNc1nccc(-c2cccnc2Oc2ccc(Nc3nnc(-c4ccc(F)cc4)c4ccccc34)cc2)n1 ?
2460

###

pIC50: −log10 of the molar value.
These molecules were tested on Insulin-like growth factor 1 receptor (Homo sapiens); pIC50 is the recorded read-out.
Sequence (P08069 31-736 limits assumed): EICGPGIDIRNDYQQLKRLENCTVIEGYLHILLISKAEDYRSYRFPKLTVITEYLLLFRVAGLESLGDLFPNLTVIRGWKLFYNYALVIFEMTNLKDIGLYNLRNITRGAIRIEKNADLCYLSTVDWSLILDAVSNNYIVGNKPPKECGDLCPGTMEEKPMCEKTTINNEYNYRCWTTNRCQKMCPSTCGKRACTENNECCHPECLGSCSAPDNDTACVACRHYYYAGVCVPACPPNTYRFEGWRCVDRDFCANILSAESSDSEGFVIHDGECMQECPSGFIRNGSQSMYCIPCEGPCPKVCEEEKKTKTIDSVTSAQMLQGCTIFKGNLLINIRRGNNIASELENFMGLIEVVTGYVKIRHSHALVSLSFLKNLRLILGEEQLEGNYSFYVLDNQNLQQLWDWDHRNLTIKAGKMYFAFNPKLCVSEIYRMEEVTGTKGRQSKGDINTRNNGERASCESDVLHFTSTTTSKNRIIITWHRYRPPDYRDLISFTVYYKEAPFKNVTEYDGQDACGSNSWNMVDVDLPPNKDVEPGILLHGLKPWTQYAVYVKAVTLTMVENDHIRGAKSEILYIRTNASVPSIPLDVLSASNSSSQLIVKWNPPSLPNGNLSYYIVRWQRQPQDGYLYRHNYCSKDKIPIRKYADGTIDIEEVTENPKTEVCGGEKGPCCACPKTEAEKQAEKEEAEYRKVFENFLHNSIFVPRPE
Sequence (P08069 741-1367 limits assumed): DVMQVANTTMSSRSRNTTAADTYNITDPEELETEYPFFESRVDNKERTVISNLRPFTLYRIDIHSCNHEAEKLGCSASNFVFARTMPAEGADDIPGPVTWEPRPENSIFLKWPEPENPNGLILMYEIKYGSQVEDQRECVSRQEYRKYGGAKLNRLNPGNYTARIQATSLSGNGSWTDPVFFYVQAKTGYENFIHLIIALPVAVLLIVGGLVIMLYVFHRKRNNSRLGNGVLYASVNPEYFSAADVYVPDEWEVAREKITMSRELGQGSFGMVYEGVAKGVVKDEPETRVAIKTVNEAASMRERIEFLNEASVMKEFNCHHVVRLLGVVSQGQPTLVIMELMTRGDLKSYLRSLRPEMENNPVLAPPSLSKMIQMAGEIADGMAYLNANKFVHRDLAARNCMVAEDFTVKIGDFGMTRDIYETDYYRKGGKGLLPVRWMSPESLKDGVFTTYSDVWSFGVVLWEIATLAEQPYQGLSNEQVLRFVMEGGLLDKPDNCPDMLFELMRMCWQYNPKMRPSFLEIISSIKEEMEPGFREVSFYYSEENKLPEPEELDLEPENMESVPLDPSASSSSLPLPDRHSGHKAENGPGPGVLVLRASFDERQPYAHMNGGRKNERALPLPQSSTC

Requested read-out pIC50, target or system Insulin-like growth factor 1 receptor (Homo sapiens), entry CNc1nccc(-c2cccnc2Oc2ccc(NC(=O)c3ccccc3Nc3ccccc3)cc2)n1
< 6.00

// below: pIC50 requested for another molecule
Report pIC50 for CNc1nccc(-c2cccnc2Oc2ccc(NC(=O)c3cccc(C(F)(F)F)c3)cc2C)n1 tested on Insulin-like growth factor 1 receptor (Homo sapiens).
< 5.10

###

target: Proto-oncogene tyrosine-protein kinase Src (Homo sapiens)
Sequence (P12931 2-536 limits assumed): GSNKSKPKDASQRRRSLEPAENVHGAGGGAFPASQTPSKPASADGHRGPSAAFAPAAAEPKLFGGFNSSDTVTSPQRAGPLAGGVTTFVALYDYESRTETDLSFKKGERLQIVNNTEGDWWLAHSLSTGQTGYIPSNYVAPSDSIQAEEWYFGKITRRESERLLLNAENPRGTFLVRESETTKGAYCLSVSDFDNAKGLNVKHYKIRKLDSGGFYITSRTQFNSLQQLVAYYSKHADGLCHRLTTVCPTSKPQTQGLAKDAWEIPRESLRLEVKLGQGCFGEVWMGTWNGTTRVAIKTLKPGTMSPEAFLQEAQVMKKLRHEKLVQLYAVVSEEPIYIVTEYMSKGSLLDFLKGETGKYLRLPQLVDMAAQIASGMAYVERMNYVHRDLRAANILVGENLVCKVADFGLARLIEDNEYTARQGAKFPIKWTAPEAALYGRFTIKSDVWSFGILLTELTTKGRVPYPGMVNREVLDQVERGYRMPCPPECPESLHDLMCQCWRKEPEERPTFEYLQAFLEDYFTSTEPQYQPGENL
Experimental readout: IC50 (µM)
Your answer is read as µM, so omit the unit and give the number.

Quick check: IC50 on Proto-oncogene tyrosine-protein kinase Src (Homo sapiens), item CNc1nccc(-c2cccnc2Oc2ccc(NC(=O)c3cccc(C(F)(F)F)c3)cc2C)n1 ?
5.75

###

Observed pIC50 values for Aurora kinase B (Homo sapiens, UniProt Q96GD4) are listed in what follows.
Note on pIC50: it is the negative log10 of concentration, concentration in mol/L.

Field request: pIC50 | item: CNc1nccc(-c2cccnc2Oc2ccc(NC(=O)c3ccc(Oc4ccccc4)cc3)cc2C)n1
6.27

Which pIC50 is reported for this compound? CNc1nccc(-c2cccnc2Oc2ccc(NC(=O)c3ccccc3Nc3ccccc3)cc2)n1
8.05

Could you tell me which pIC50 is on file for CNc1nccc(-c2cccnc2Oc2ccc(NC(=O)c3cccc(C(F)(F)F)c3)cc2C)n1 ?
7.18

What does the record list as pIC50 for CNc1nccc(-c2cccnc2Oc2ccc(NC(=O)c3ccccc3Oc3ccccc3)cc2C)n1 ?
7.25

Next, consider the following compound.
Entry CNc1nccc(-c2cccnc2Oc2ccc(Nc3nnc(-c4ccc(F)cc4)c4ccccc34)cc2)n1 has what pIC50?
7.82

###

Molecular target: Ephrin type-B receptor 4 (Homo sapiens, UniProt P54760)
Sequence (P54760 whole entry): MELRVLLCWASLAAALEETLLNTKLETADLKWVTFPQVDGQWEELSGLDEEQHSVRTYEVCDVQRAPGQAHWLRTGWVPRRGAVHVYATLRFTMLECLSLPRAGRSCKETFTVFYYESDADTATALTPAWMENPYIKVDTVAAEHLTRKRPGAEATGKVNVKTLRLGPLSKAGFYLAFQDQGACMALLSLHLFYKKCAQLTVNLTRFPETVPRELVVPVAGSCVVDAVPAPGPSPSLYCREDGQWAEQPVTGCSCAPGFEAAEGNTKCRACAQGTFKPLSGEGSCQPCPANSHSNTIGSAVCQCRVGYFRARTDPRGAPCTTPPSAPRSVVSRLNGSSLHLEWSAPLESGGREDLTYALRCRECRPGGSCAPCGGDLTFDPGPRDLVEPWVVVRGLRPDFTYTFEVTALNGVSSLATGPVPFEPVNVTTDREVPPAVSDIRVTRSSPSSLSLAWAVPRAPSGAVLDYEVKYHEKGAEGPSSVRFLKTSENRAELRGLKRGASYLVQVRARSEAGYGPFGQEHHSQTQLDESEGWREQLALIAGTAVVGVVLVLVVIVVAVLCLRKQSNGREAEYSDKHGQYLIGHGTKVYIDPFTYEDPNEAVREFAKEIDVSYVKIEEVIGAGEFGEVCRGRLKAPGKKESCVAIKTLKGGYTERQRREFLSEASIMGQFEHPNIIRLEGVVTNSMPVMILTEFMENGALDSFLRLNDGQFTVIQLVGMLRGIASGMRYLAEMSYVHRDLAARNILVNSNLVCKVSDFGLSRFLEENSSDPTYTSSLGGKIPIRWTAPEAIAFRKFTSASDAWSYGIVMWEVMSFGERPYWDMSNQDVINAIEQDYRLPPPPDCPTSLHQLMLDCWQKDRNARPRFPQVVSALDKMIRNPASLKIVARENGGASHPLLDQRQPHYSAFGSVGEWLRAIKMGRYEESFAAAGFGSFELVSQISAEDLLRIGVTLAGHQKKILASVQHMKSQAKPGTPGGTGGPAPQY
pIC50: −log10 of the molar value.
Experimental readout: pIC50

Which pIC50 is listed for CNc1nccc(-c2cccnc2Oc2ccc(NC(=O)c3ccccc3Nc3ccccc3)cc2)n1 ?
< 6.00

###

Target: Tyrosine-protein kinase ZAP-70 (Homo sapiens)
Sequence (P43403 whole entry): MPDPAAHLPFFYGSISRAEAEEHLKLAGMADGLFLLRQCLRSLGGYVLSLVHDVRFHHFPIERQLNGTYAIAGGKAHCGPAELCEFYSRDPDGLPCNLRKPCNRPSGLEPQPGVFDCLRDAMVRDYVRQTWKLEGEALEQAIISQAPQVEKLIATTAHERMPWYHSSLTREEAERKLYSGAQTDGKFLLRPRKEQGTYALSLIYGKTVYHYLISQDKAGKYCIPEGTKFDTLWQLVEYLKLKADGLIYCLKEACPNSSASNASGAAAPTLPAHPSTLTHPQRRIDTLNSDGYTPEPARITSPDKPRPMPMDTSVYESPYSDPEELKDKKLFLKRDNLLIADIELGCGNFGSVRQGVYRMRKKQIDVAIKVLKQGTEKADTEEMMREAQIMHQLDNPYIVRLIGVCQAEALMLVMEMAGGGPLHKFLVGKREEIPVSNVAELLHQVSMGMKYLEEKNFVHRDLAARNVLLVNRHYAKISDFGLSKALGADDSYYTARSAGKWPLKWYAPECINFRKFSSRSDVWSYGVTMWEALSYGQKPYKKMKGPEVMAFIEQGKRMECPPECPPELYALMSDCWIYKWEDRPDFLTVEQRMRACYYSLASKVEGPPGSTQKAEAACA
Experimental readout: IC50

Please report the recorded IC50 for CNc1nccc(-c2cccnc2Oc2ccc(NC(=O)c3ccccc3Nc3ccccc3)cc2)n1 .
> 1 µM

###

target: Aurora kinase A/Targeting protein for Xklp2 (Homo sapiens, UniProt O14965); experiment: Inhibition of Aurora A/TPX2 (1-43) by HTRF assay
Sequence (O14965 whole entry): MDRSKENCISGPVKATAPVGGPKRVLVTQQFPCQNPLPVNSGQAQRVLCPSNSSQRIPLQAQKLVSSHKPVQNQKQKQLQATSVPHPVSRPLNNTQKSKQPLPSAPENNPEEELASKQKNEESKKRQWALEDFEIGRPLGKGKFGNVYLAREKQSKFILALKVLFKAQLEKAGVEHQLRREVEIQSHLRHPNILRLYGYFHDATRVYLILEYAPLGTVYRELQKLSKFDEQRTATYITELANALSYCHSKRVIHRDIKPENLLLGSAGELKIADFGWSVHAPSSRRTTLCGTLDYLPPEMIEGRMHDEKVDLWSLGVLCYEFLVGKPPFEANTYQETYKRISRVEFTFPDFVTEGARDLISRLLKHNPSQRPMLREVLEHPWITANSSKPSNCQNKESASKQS
Sequence (Q9ULW0 whole entry, further chain): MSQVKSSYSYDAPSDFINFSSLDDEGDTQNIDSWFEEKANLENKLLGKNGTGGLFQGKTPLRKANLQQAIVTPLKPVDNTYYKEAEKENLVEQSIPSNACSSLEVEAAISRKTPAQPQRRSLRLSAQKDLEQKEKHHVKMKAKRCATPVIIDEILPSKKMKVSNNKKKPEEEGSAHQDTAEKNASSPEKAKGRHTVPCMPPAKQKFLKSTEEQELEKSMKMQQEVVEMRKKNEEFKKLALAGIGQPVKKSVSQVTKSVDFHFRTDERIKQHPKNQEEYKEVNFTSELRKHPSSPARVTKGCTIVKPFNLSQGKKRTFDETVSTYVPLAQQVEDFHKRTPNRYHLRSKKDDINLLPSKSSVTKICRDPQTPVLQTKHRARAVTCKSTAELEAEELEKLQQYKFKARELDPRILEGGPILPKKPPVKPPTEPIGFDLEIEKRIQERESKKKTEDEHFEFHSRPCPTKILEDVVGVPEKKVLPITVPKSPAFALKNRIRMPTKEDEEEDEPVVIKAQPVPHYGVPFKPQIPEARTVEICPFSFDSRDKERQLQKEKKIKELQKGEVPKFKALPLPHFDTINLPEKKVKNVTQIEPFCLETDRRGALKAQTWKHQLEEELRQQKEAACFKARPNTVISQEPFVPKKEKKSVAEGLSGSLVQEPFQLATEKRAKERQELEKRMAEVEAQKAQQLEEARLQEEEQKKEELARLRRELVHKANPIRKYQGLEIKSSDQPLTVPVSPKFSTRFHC
Rule: measured IC50 below 100 nM gets 1.0; anything equal to or greater than 100 nM gets 0.0.

Consider the molecule CNc1nccc(-c2cccnc2Oc2ccc(NC(=O)c3ccccc3Nc3ccccc3)cc2)n1 . Is its IC50 strictly less than 100 nM?
1.0

In plain terms, does CNc1nccc(-c2cccnc2Oc2ccc(NC(=O)c3cccc(C(F)(F)F)c3)cc2C)n1 come in under 100 nM for IC50?
0.0

Problem: For the molecule CNc1nccc(-c2cccnc2Oc2ccc(NC(=O)c3ccccc3Oc3ccccc3)cc2C)n1 , is IC50 under 100 nM?
0.0

Hello, is IC50 of the following molecule strictly smaller than 100 nM? CNc1nccc(-c2cccnc2Oc2ccc(NC(=O)c3ccc(Cl)cc3)cc2C)n1
0.0

Strictly below 100 nM: is that where IC50 of CNc1nccc(-c2cccnc2Oc2ccc(NC(=O)c3cccc(Cl)c3)cc2C)n1 sits?
0.0

Continuing:
Quick check: does CNc1nccc(-c2cccnc2Oc2ccc(Nc3nnc(-c4ccccc4)c4ccccc34)cc2)n1 have IC50 under 100 nM?
0.0

Please let me know if CNc1nccc(-c2cccnc2Oc2ccc(NC(=O)c3ccccc3Nc3ccccc3)c(C)c2)n1 shows IC50 below 100 nM.
0.0

Does the reported IC50 of CNc1nccc(-c2cccnc2Oc2ccc(Nc3nnc(-c4ccc(F)cc4)c4ccccc34)cc2)n1 stay below 100 nM?
1.0

is_below(IC50, 100 nM) for CNc1nccc(-c2cccnc2Oc2ccc(NC(=O)c3ccccc3Nc3ccccc3)cc2C)n1 ?
1.0

Please check: IC50 for CNc1nccc(-c2cccnc2Oc2ccc(NC(=O)c3ccccc3Cl)cc2C)n1 , strictly under 100 nM or not?
0.0

Item CNc1nccc(-c2cccnc2Oc2ccc(NC(=O)c3cccc(Oc4ccccc4)c3)cc2C)n1 : IC50 beneath 100 nM, strictly?
0.0
